- Test Summary: fission yeast growth modulation, primary screen, strain 972, OD600, 24 h, no modulator (AID 1090);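 further: basal condition with compound alone and no growth modifier present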
- Reported Conditions: S. pombe 972 growth, called active from +8 up or from −8 down
Activity calls are given as the source filed them.
I would appreciate it if you answered using one of these outcomes: Yes for active, No for inactive

Reference set (3 entries):
CCCCC(=C=CC[C@H](O)c1cccc(OCCO)c1)CCO
No
CCOC(=O)C[C@H]1[C@H](OC(=O)c2ccc(-c3ccccc3)cc2)[C@@H](NC(=O)C2CCCCC2)c2cc(OCCCO)ccc2N1C(=O)c1ccc2ccccc2n1
No
COC(=O)C1=CC(c2ccc(CO)cc2)=CC(C2CC2)N(C)C=C1C(=O)OC (stereo not drawn)
No

Kindly provide the recorded test outcome for the following molecule: NCCCCCCNC(=O)[C@@H]1C[C@@H]2C(=O)N[C@@H](Cc3ccccc3)C(=O)N2[C@@H]1c1ccc(O)cc1 No

Please share the test call associated with C=C(/C(=C/C[C@H](OC(=O)c1ccncc1)c1cccc(OCCO)c1)c1cc(C(=O)OC)ccc1OC)C(C)C . No

Please state the recorded outcome for this molecule: CCOC(=O)C[C@H]1[C@H](OC(=O)c2ccc(-c3ccccc3)cc2)[C@@H](NC(=O)c2ccccc2)c2cc(OCCCO)ccc2N1C(=O)c1ccccc1 No

Answer briefly: the call reported for CO[C@H]1O[C@H](CO)[C@@H](OC(=O)Nc2ccccc2)[C@H](OC(=O)Nc2ccccc2-c2ccccc2)[C@@H]1OC(=O)Nc1ccccc1-c1ccccc1 in this assay. No

Short answer needed: outcome of this test for COCCCNC(=O)[C@@]1(C)c2ccccc2C(=O)N(Cc2cc(F)cc(C(F)(F)F)c2)[C@H]1c1ccc(CO)cc1 ? No

Could you check what this test reported for CC(C)N1CC=CC23O[C@@H]4/C=C\CCCOC(=O)C4[C@H]2C(=O)N(CCCO)[C@@H]3C1=O (stereo partly drawn) ? No

State the result this test recorded for CC(C)[Si](C#C[Si](C(C)C)(C(C)C)C(C)C)(O[C@H](C)c1cn([C@H](C)c2ccccc2)nn1)C(C)C . No

Field: outcome | Entry: CC(C)(C)OC(=O)CC[C@@]12N=C(c3ccc(OCCCO)cc3)O[C@@H]1c1ccccc1CN(Cc1ccccc1)C2=O No

Query: recorded result category for C=C(C(=O)CC[C@@H](OC(C)=O)c1ccccc1OCCO)C(C)C in this test Yes

###

Field: max activity. Provide a value for each of the compounds that follow.
- Test Summary: NIH:OVCAR-3 ovarian cancer cell cytotoxicity, dose response, PAX8 inhibitor project, plate reader, dry powder samples (AID 743044)
- Reported Conditions: NIH:OVCAR-3 ovarian cancer cell viability; at 35 µM, stronger effect = lower value unless noted
Results with a measured potency or affinity are listed apart. Records with an inconclusive call do not appear. The source made the active and inactive calls. How the calls were made is not given here.

// below: answered compounds
C[C@@H]1CN([C@@H](C)CO)S(=O)(=O)c2ccc(C#Cc3ccc(F)cc3)cc2O[C@H]1CN(C)C(=O)NC1CCCCC1
-9.84% (inactive)
C[C@@H]1CN([C@@H](C)CO)C(=O)c2cc(N(C)C)ccc2O[C@@H]1CN(C)Cc1ccc(Oc2ccccc2)cc1
-18.3% (inactive)
C[C@H]1CCCCO[C@H](CN(C)S(=O)(=O)c2ccc(Cl)cc2)[C@@H](C)CN([C@@H](C)CO)C(=O)c2cc(NS(=O)(=O)c3ccc(Cl)cc3)ccc2O1
-21.5% (inactive)

Alright, here's another compound for you.
Please report the recorded max activity for CN1C[C@@H]2[C@H](c3ccccc31)[C@H](CO)N2Cc1ccccc1Cl . 22.5% (inactive)

###

- Test Summary: basal HepG2 mitochondrial membrane potential changes, profiling panel, cell-based, JC-1 fluorescence, 24 h, 100 nL compound (AID 1167)
- Reported Conditions: higher = more signal
Would you mind labelling by z-score? At or over 1 is true, under is false.

C=CC[C@]1(C(=O)N(C)C)N=C(c2ccc(OCCCO)cc2)O[C@H]1c1ccccc1CN=[N+]=[N-]
true
NC(=O)N1C(=O)C2C(C1=O)C1C=C(c3ccc(CO)cc3)C2C(C2CC2)N1Cc1cc2c(cc1Br)OCO2 (stereo not drawn)
true
COC(=O)C1=CC(CCCO)=CC(C2CC2)N(Cc2cc3c(cc2Br)OCO3)C=C1C(=O)OC (stereo not drawn)
true

Textbook exercise: given the entry Cc1ccc(N2C(=O)c3ccccc3[C@](C)(C(=O)NCC(F)(F)F)[C@@H]2c2ccc(CO)cc2)nc1 , state whether its z-score is greater than or equal to 1. false

Could you tell me if the measured z-score of COc1c(C)cc(-c2cc3c(c(CCc4ccccc4)n2)[Si](C(C)C)(C(C)C)OC3)cc1C reaches 1 or more? false

Does z-score meet or surpass 1 for CC(=O)OC(C/C=C\B1OC(C)(C)C(C)(C)O1)c1ccccc1 (stereo not drawn) ? true

// inclusive: z-score at least 1? input: O=C1c2ccccc2[C@@]2(Cc3ccccc3N(CC(F)(F)F)C2=O)[C@H](c2ccc(CO)cc2)N1Cc1ccccc1C(F)(F)F false

Please tell me: is the compound C[N+](C)(C)CCCC[C@@H]1NC(=O)[C@@H]2C[C@H](C(=O)NCCCCCNC(=O)CS)[C@H](c3ccc(O)cc3)N2C1=O at or over 1 in terms of z-score? true

###

- Test Summary: MM1S myeloma cell viability, profiling panel, resazurin fluorescence, basal, 24 h, PK04 Diversity Set (AID 1174);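 further: MM1S multiple myeloma cell line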
- Reported Conditions: called active from +8 up or from −8 down
Calls of active or inactive are those of the source.
Use one of these outcomes when replying: 1 for active, -1 for inactive

CCCCC(=C=CC[C@H](O)c1cccc(OCCO)c1)CCO
-1
CCCCCN1CC=CC23O[C@@H]4/C=C\CCC(C)OC(=O)C4[C@H]2C(=O)N(CCCO)[C@@H]3C1=O (stereo not given in full)
-1
CC(C)C(CO)N1C(=O)[C@@H]2C3C(=O)OCCC/C=C\[C@H]3OC23C=CCN(C(C)C)C(=O)[C@@H]13 (stereo not given in full)
-1

Just curious, what result did CN1C=C(C(=O)OCCS(C)(=O)=O)C(C(=O)OCCS(C)(=O)=O)=CC(CCCO)=CC1c1cccs1 (stereo not given) get here? -1

Call for entry CC(C)C[C@@H]1NC(=O)[C@@]23C(=O)N[C@@H](Cc4ccccc4)C2[C@H](C)[C@@]2(C)O[C@H]2C3/C=C/CC/C=C/CNC(=O)[C@@H](C)NC1=O (stereo not given in full) : -1

Could you please tell me the result logged for O=C(O)[C@H]1C[C@H]2C(=O)NCC(=O)N2[C@H]1c1cccc(OCCO)c1 in this assay? -1

Tell me the assay call for CC(C)(C)OC(=O)CC[C@@]12N=C(c3ccc(OCCCO)cc3)O[C@@H]1c1ccccc1N(Cc1ccccc1)C2=O please. -1

Short answer needed: outcome of this test for C=CCN1C(=O)[C@@]2(O[C@@H](CCO)[C@H]([Si](C)(C)c3ccc(OC)cc3)[C@H]2C)c2cc(N3C(=O)c4cccc5cccc3c45)ccc21 ? 1

Kindly provide the recorded test outcome for the following molecule: CCOC(=O)C[C@H]1[C@H](OC(=O)Cc2ccc3c(c2)OCO3)[C@@H](NC(=O)c2ccc3ccccc3c2)c2cc(OCCCO)ccc2N1C(=O)c1ccc2ccccc2n1 -1

Which result was noted for this molecule in the test: CC(C)[Si](C#C[Si](C(C)C)(C(C)C)C(C)C)(O[C@H](C)c1cn([C@H](C)c2ccccc2)nn1)C(C)C -1

Could you please tell me the result logged for C=CCC(OC(C)=O)[C@@H]1[C@@H](N(Cc2cccc3ccccc23)C(=O)Cc2ccc(OC)cc2)c2cc(OCCCO)ccc2N1C(=O)Cc1ccc(OC)cc1 (stereo not given in full) in this assay? -1

State the result this test recorded for O=C(O)[C@H]1C[C@H]2C(=O)N[C@@H](Cc3ccccc3)C(=O)N2[C@H]1c1ccc(O)cc1 . -1

Identify the outcome logged in this assay for the molecule shown: CN(C)CCCC[C@@H]1NC(=O)[C@@H]2C[C@H](C(=O)NCCCCCNC(=O)CS)[C@H](c3cccc(OCCO)c3)N2C1=O -1

What is the recorded call for this molecule in the test? Cc1ccc(S[C@]2(C(=O)NCC(C)C)CC(=O)N(C(C)C)[C@@H]2c2ccc(CO)cc2)cc1 -1

Any idea what this test logged for COC(=O)[C@@]1(CCC(=O)OC(C)(C)C)COC(c2ccc(OCCCO)cc2)=N1 ? -1

###

Task for the reader: assign each of the following molecules its reported composite z-score.
- Tested on: glycogen synthase kinase-3 (GSK3A per assay name; protocol says GSK3B)
- Test Summary: GSK3 binders on small-molecule microarrays, primary screen, biochemical, small-molecule microarray, 635 nm fluorescence, GSK3A (AID 1103); further: the record names both GSK3A and GSK3B
- Reported Conditions: small-molecule microarray binding, fluorescence 635 nm; higher = more signal

Recorded composite z-score, per entry:
COCCCNC(=O)[C@@]1(Cc2ccccc2CN=[N+]=[N-])COC(c2ccc(OCCCO)cc2)=N1
0.266
COCCOC(=O)N1C(=O)[C@@]2(c3ccccc31)[C@H](C(=O)Nc1nc3ccccc3s1)[C@H]1C(=O)O[C@H](c3ccccc3)[C@H](c3ccccc3)N1[C@@H]2c1ccc(O)cc1
1.29

Parameter requested: composite z-score. Apply to each item below.
1. COc1ccc(/C=C/C(=O)c2cccc(OCC(=O)OC(C)(C)C)c2)cc1
2. Cc1ccc(S[C@]2(C(=O)NCCN3CCOCC3)CC(=O)N(Cc3cc(C(F)(F)F)cc(C(F)(F)F)c3)[C@@H]2c2ccc(CO)cc2)cc1
3. COc1ccc(C#Cc2ccc3c(c2)[C@]2(C(=O)N3)[C@H](c3ccc(O)cc3)N3[C@H](c4ccccc4)[C@H](c4ccccc4)OC(=O)[C@H]3[C@@H]2C(=O)N2CCN(c3ncccn3)CC2)cc1
4. COc1ccc([Si](C)(C)[C@H]2[C@H](CC(=O)N(CCO)Cc3ccccc3)O[C@@]3(C(=O)N(Cc4ccc(N5CCC5=O)cc4)c4ccccc43)[C@@H]2C)cc1

[0.483, -1.45, 0.424, -0.39]
